System: HT29
assay_procedure: NCI-60 anticancer screen (SRB; single dose and five doses)
test_conditions: Homo sapiens, HT-29
observation_type: pIC50
Bear in mind: pIC50 is minus log10 of a mol/L concentration; give just that figure.

Lookup: Retrieve pIC50 on HT29; query COc1cc(/C=C/C(=O)c2sc(=S)[nH]c2C)cc(OC)c1OC
Found: 5.34

Lookup: Answer briefly: pIC50 recorded on HT29 for Cc1[nH]c(=S)sc1C(=O)/C=C/c1ccc(Cl)cc1
Found: 5.02

Lookup: Identify measured pIC50 obtained with HT29 for Cc1[nH]c(=S)sc1C(=O)/C=C/c1cccc(Cl)c1 .
Found: 5.45

Lookup: With HT29 as the test system, provide measured pIC50 for this molecule: Cc1[nH]c(=S)sc1C(=O)/C=C/c1cccc([N+](=O)[O-])c1
Found: 5.14

Hello, the source for this data is paper PMC11435058, in case you need it.
